Give IC50 for every item shown.
- MEASUREMENT TARGET: recombinant purified human EHMT2 913-1193 (Homo sapiens)
- Construct: Recombinant purified human EHMT2 913-1193 (55 μM) synthesized by Viva was used for all experiments; purchased Viva
- Sequence (Q96KQ7 913-1193): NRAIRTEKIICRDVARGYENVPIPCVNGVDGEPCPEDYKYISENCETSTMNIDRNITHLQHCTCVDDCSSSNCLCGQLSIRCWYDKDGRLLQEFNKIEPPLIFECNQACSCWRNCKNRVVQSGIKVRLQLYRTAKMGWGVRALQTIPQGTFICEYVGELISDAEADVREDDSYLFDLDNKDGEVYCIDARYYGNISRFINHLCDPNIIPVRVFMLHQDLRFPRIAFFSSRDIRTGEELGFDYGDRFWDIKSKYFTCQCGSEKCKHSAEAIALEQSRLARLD
- EXPERIMENTAL DETAILS: EHMT2 enzyme assay on histone peptide substrate (3H-SAM Flashplate)
- Assay type: biochemical
- RUN CONDITIONS: read-out: EHMT2 PEP (IC50 μM)

Field: example entries. Status: answers known.
> print(dat)
                                   compound  measured.result
1  CNc1cc(C)nc(Nc2ccc(OC)c(-n3cc(C4CCCN4C)nn3)c2)n1 (stereo not drawn)      0.1 to 1 µM
2  CNc1cc(C)nc(Nc2ccc(OC)c(-n3nnc(C)c3CN(C)C)c2)n1          > 10 µM
3  CNc1cc(C)nc(Nc2ccc(OC)c(-n3ncc4c3CCCC4)c2)n1          > 10 µM

Go through the list and state IC50 for each entry.
1. CNc1cc(C)nc(Nc2ccc(OC)c(-n3cc(C(C)(C)NC)nn3)c2)n1
2. CNc1cc(C)nc(Nc2ccc(OC)c(-n3cc4cc(C5CC5)ccc4n3)c2)n1
3. CNc1cc(C)nc(Nc2ccc(OC)c(-n3nnc(CN(C)C)c3C)c2)n1

["> 10 µM", "> 10 µM", "> 10 µM"]

---

Give IC50 for every item shown.
- MEASUREMENT TARGET: EHMT1 (Homo sapiens)
- EXPERIMENTAL DETAILS: EHMT1 PEP (EHMT1 peptide enzyme assay)
- Type: biochemical
- RUN CONDITIONS: peptide substrate enzyme assay
Counter-ions that a name gives are not always drawn.

Field: example entries. Status: answers known.
> print(dat)
                                   molecule  measured.result
1  CNCc1c(C)nn(-c2cc(Nc3nc(C)cc(NC)n3)ccc2OC)c1C          > 10 µM
2  CNc1cc(C)nc(Nc2ccc(OC)c(-c3nc4c([nH]3)CNCC4)c2)n1       1 to 10 µM

Go through the list and state IC50 for each entry.
1. COc1cc2c(cc1-n1cc([C@H]3CCCN3)nn1)N=C(N)C21CCC1
2. CNc1cc(C)nc(Nc2ccc(OC)c(-n3cc4c(n3)CCCN4)c2)n1 [Compound 56, hydrochloride]
3. CNc1ccnc(Nc2ccc(OC)c(-n3cc(C4CC4)nn3)c2)n1

1: < 0.1 µM; 2: 1 to 10 µM; 3: 0.1 to 1 µM

---

- MEASUREMENT TARGET: EHMT1 (Homo sapiens)
- Sequence (Q9H9B1 1-1298): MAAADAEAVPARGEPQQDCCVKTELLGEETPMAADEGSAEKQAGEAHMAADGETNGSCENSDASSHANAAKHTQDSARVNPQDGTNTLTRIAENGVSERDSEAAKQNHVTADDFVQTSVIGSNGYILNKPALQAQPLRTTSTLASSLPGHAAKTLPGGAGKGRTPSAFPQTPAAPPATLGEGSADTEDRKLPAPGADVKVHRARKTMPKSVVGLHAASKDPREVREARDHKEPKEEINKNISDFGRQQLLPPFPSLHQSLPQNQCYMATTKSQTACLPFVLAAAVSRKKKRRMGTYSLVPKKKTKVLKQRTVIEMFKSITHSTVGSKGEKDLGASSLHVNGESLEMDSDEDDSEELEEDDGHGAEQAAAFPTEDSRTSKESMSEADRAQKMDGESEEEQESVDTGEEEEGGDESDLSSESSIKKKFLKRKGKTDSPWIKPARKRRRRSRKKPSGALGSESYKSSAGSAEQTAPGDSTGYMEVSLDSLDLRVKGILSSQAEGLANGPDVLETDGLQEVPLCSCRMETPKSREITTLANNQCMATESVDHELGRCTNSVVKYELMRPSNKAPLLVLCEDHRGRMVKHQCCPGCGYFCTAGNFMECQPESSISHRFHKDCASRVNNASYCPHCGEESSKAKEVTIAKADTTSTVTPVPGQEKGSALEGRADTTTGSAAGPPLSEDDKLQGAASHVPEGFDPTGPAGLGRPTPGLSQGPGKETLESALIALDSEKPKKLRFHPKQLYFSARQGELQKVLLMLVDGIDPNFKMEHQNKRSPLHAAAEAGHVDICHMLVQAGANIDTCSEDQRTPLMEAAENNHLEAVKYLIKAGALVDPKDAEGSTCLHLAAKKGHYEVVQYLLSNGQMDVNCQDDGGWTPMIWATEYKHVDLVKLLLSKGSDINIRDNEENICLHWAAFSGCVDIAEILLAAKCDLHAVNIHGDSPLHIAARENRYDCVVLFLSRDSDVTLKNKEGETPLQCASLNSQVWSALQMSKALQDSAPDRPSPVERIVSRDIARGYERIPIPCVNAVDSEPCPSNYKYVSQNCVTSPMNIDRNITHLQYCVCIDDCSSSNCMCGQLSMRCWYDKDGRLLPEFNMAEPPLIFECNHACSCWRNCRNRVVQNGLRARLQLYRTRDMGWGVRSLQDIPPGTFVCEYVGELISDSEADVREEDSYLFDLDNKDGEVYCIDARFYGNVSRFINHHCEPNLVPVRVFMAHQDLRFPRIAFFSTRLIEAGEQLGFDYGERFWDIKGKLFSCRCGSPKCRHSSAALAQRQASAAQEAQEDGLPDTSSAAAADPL
- EXPERIMENTAL DETAILS: EHMT1 PEP (EHMT1 peptide enzyme assay)
- Type: biochemical
- RUN CONDITIONS: peptide substrate enzyme assay
Give IC50 for every item shown.

> print(dat)
                                   compound  measured.quantity  measured.result
1  CNCc1ccnc(-c2cc(Nc3nc(C)cc(NC)n3)ccc2OC)c1               IC50      0.1 to 1 µM
2  CNc1cc(C)nc(Nc2ccc(OC)c(-n3cc4ccccc4n3)c2)n1               IC50      0.1 to 1 µM
3  CNc1cc(C)nc(Nc2cnc(OC)c(-n3cc(C4CCCN4)cn3)c2)n1 (stereo not drawn)               IC50      0.1 to 1 µM

Go through the list and state IC50 for each entry.
1. CNc1cc(C)nc(Nc2ccc(OC)c(-n3cc(C4CCCN4)nn3)c2)n1 (stereo not drawn)
2. CNc1cc(C)nc(Nc2ccc(OC)c(-c3cc4[nH]cnc4cn3)c2)n1
3. COc1cc(NC2CCNCC2)ccc1-c1cc(C2CC2)cnn1
4. CNc1cc(C)nc(Nc2ccc(Cl)c(C(=O)Nc3cnccn3)c2)n1
5. CNc1cc(C)nc(Nc2ccc(Cl)c(-c3cc4[nH]ccc4cn3)c2)n1
6. CNc1cc(C)nc(Nc2ccc(OC)c(-n3cc(C4CCCN4C)nn3)c2)n1 (stereo not drawn)

< 0.1 µM
< 0.1 µM
> 10 µM
0.1 to 1 µM
< 0.1 µM
0.1 to 1 µM

---

Give IC50 for every item shown.
- MEASUREMENT TARGET: EHMT1 (Homo sapiens)
- EXPERIMENTAL DETAILS: EHMT1 PEP (EHMT1 peptide enzyme assay)
- Type: biochemical
- RUN CONDITIONS: peptide substrate enzyme assay

Field: example entries. Status: answers known.
> print(dat)
                            molecule.smiles  measured.result
1  CCNc1c[nH]c(=O)c(-c2cc(Nc3nc(C)cc(NC)n3)ccc2C)c1       1 to 10 µM
2  CNc1cc(C)nc(Nc2ccc(OC)c(-c3cn[nH]c3)c2)n1          > 10 µM
3  CNc1cc(C)nc(Nc2ccc(OC)c(-c3cc(C4CC4)on3)c2)n1      0.1 to 1 µM

Go through the list and state IC50 for each entry.
1. CNc1cc(C)nc(Nc2cnc(OC)c(-n3ncc4c3CCNC4)c2)n1
2. CNc1cc(C)nc(Nc2ccc(OC)c(-c3ccc4nc(C)[nH]c4c3)c2)n1
3. CNc1cc(C)nc(Nc2ccc(OC)c(-c3cn4c(n3)CN(C)CC4)c2)n1
4. CNc1cc(C)nc(Nc2ccc(OC)c(-n3nnc(CN(C)C)c3C)c2)n1
5. CNC(=O)c1c(C)nn(-c2cc(Nc3nc(C)cc(NC)n3)ccc2OC)c1C
6. CNc1nc2cc(-c3cc4[nH]ccc4cn3)c(OC)cc2n1C

["1 to 10 µM", "> 10 µM", "> 10 µM", "> 10 µM", "> 10 µM", "0.1 to 1 µM"]

Go through the list and state IC50 for each entry.
1. CNCc1cn(-c2cc(Nc3nc(C)cc(NC)n3)ccc2OC)nc1F
2. CNCc1cc(-c2cc(Nc3nc(C)cc(NC)n3)ccc2OC)on1
3. CNc1cc(C)nc(Nc2ccc(OC)c(-n3cc([C@H]4CCCN4)nn3)c2)n1
4. CNc1cc(C)nc(Nc2ccc(OC)c(-c3nccc(NC)n3)c2)n1
5. CNc1cc(C)nc(Nc2ccc(OC)c(-c3cc4[nH]ccc4c(C)n3)c2)n1
6. CNc1cc(C)nc(Nc2ccc(Cl)c(C(=O)Nc3ncccn3)c2)n1
7. CNc1cc(C)nc(Nc2ccc(OC)c(-n3nccc3CNC(C)=O)c2)n1

["< 0.1 µM", "0.1 to 1 µM", "< 0.1 µM", "1 to 10 µM", "< 0.1 µM", "0.1 to 1 µM", "> 10 µM"]

Go through the list and state IC50 for each entry.
1. CNCc1cnn(-c2cc3nc(NC)n(C)c3cc2OC)c1
2. CNc1ccnc(Nc2ccc(OC)c(-n3cc(C4COC4)nn3)c2)n1

1. 0.1 to 1 µM
2. 1 to 10 µM
